Molecular target: rhKLK7 (human, UniProt P49862 30-253)
Sequence (P49862 30-253): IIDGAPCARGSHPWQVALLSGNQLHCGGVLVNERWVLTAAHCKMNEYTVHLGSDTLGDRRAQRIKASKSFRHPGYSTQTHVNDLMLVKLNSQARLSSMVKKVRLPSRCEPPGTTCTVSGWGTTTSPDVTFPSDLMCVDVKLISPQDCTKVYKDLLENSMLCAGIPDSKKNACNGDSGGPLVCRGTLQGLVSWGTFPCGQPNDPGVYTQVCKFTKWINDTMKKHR
Experiment: cell-based or functional assay
reported.property: KLK7 IC50 (nM) pH 7.5 (enzymatic activity)
The reply should be a number in nM, with the unit left off.

Qu. I would be grateful if you could share the reported KLK7 IC50 (nM) pH 7.5 (enzymatic activity) for Spink9-183.Fc (SEQ ID NO: 57) (Fc fusion, Mutant SPINK9 domain fused directly to a C-terminal IgG Fc) IECAKQTKQMVDCSHYKKLPPQQQAYCTRDYDPICGSDGKTYKNDCFFCSKVKKTDGTLKFVHFGKCEPKSCDKTHTCPPCPAPEAAGGPSVFLFPPKPKDTLMISRTPEVTCVVVDVSHEDPEVKFNWYVDGVEVHNAKTKPREEQYNSTYRVVSVLTVLHQDWLNGKEYKCKVSNKALPAPIEKTISKAKGQPREPQVYTLPPSREEMTKNQVSLTCLVKGFYPSDIAVEWESNGQPENNYKTTPPVLDSDGSFFLYSKLTVDKSRWQQGNVFSCSVLHEALHSHYTQKSLSLSPGK .
Ans. 5.4
